FYI, the data here is from PubChem BioAssay AID463173.

- System: DeltatarO mutant
- Method Summary: S. aureus survival, RN4220 and DeltatarO strains – OD600, teichoic acid synthesis inhibitors, primary screen (AID 463173)
- Assay Context: S. aureus RN4220 wild type/DeltatarO growth, OD600, 18 h, stronger effect = lower value, screened at 18.75 µg/mL (by protocol)
About 4,300 (8.3%) of roughly 52,000 compounds were called active. Shown is part of a subset that was picked to be rich in actives.
Doc: threshold 80% (exclusive). Items with survival beneath it return Condition met; others return Condition not met.

structure_as_smiles=CCOc1ccc(NC(=O)Cn2cc(C(=O)c3ccc(CC)cc3)c(=O)c3cc4c(cc32)OCO4)cc1 study_target="DeltatarO mutant" assigned_category="Condition not met"
structure_as_smiles=Cc1cccc(NC(=O)c2oc3ccccc3c2NC(=O)c2cc(=O)c3ccccc3o2)c1 study_target="DeltatarO mutant" assigned_category="Condition met"
structure_as_smiles=Cc1ccc(-n2c(=O)c3c(c4cc(C)ccc4n3C)n(CC(=O)NCc3ccccc3Cl)c2=O)cc1 study_target="DeltatarO mutant" assigned_category="Condition met"
structure_as_smiles=Cc1ccc2c(=O)cc(C(=O)Nc3c(C(=O)c4ccccc4)oc4ccccc34)oc2c1 study_target="DeltatarO mutant" assigned_category="Condition met"
structure_as_smiles=O=C(Cn1c(=O)sc2ccccc21)OCc1ccccc1 study_target="DeltatarO mutant" assigned_category="Condition not met"
